Data origin: patent US20250319046A1

Reported IC50 values are given for each entry in this list.
# Measurement target: LAT1 (Homo sapiens (Human), UniProt Q01650)
# Sequence (Q01650 whole entry): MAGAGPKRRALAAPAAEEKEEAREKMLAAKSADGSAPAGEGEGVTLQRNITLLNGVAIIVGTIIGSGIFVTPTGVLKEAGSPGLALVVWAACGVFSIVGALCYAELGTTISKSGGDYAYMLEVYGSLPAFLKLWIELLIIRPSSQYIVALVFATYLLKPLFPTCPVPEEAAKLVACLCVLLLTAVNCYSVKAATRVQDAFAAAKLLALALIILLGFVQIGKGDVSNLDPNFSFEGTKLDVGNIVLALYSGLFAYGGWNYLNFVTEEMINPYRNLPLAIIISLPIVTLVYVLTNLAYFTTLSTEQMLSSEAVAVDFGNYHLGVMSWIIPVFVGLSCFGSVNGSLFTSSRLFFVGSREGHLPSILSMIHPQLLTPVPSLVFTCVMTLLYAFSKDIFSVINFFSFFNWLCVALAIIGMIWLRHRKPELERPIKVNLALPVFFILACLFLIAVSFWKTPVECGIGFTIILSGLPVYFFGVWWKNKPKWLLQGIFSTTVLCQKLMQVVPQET
# Sequence (P08195 whole entry partner): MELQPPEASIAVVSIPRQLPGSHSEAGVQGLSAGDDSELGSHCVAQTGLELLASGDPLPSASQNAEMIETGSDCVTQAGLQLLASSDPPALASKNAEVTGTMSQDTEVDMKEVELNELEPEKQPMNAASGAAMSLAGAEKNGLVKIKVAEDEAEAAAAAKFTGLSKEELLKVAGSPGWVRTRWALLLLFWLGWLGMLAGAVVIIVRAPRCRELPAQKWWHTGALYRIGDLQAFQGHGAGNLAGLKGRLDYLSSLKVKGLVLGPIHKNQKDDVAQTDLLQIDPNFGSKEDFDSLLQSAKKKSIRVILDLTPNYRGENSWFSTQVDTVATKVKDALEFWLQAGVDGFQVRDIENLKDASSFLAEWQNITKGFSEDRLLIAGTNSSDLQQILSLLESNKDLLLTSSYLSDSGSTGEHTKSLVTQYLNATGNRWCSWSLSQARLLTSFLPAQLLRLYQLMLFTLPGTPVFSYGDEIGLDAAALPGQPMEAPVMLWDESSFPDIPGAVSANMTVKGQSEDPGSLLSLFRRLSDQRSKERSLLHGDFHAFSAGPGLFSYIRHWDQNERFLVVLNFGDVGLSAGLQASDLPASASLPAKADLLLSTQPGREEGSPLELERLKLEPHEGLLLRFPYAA
# Experiment description: LAT1 uptake inhibition assay: [3H]-gabapentin competition uptake in LN229 cells
# Type: cell-based
# Stated conditions: [3H]-gabapentin uptake, 15 min incubation in PBS, read-out: IC50, the concentration of test compound at which the [3H]-GP uptake was inhibited by 50%

Can you look up the measured IC50 of Cc1ccc(NS(=O)(=O)c2ccc(C(C)(C)C)cc2)cc1C[C@H](N)C(=O)O for me? 20 to 100 nM

Would you mind telling me what IC50 value was observed for Cc1ccc(NS(=O)(=O)c2cccc3nonc23)cc1C[C@H](N)C(=O)O ? 1000 to 10000 nM

Data request, read-out IC50, for N[C@@H](Cc1cc(Cl)c(NS(=O)(=O)c2ccccc2)c(Cl)c1)C(=O)O ≥ 10000 nM

Value lookup for IC50; key = Cc1ccc(NS(=O)(=O)c2c(Cl)cc(C(F)(F)F)cc2Cl)cc1C[C@H](N)C(=O)O 1000 to 10000 nM

Any idea what IC50 was measured for Cc1ccc(NS(=O)(=O)C2CCOCC2)cc1C[C@H](N)C(=O)O ? 1000 to 10000 nM

Which IC50 value belongs to Cc1ccc(NS(=O)(=O)c2cccc3ncccc23)cc1C[C@H](N)C(=O)O ? 1000 to 10000 nM

Sample Cc1ccc(S(=O)(=O)Nc2ccccc2Br)cc1C[C@H](N)C(=O)O — what was its IC50? 100 to 1000 nM

Look at this molecule and give its reported IC50. CN(C)S(=O)(=O)c1cccc(C[C@H](N)C(=O)O)c1 1000 to 10000 nM
